Cited source: PubChem BioAssay (Tox21)

# assayTarget: Cytochrome P450 2D6 (Homo sapiens) (UniProt P10635)
# Sequence (P10635 whole entry, looked up): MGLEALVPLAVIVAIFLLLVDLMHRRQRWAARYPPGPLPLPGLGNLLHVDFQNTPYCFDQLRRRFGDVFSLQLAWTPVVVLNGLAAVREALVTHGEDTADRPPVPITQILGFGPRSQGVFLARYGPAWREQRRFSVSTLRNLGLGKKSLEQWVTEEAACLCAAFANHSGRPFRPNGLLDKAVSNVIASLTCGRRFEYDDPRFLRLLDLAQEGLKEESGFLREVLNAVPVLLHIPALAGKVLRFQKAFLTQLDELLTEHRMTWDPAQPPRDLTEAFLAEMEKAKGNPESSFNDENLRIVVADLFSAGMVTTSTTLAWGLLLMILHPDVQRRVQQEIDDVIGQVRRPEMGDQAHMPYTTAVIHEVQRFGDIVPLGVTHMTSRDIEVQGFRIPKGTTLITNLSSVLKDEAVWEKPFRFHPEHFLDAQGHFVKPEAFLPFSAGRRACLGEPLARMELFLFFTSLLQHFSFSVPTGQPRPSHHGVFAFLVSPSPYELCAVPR
# measurementNotes: Cytochrome P450 Family 2 Subfamily D Member 6 (CYP2D6) small molecule antagonists: luciferase reporter qHTS assay (AID 1671196); note: nearly all actives have a fitted effect of over 50% in size
# measurementParameters: P450-Glo CYP2D6 enzyme assay, luciferin luminescence, 1 h; series mostly up to 115 µM
Records with an inconclusive call do not appear. Activity calls are given as the source filed them. Calls come from the whole dose curve; as a rule, active = well fitted inhibition curve with a large enough effect in the repeat runs; inconclusive = weak or mixed curves; inactive = no such curve, though single readings can be large or run the other way.
# valid calls are true for active, false for inactive; nothing else

COc1cc(OC)c(OC)cc1C=O: true
Clc1ccccc1-c1ccccc1Cl: false
O=C1C(I)=CC(=C(c2cc(I)c(O)c(I)c2)c2ccccc2C(=O)O)C=C1I: false
O=[N+]([O-])c1c(Cl)c(Cl)cc(Cl)c1Cl: true
ClC(Cl)=C(c1ccc(Cl)cc1)c1ccccc1Cl: false
N#Cc1cc([N+](=O)[O-])ccc1N: false

*Q* In this assay, the call recorded for O=C(Nc1ccccc1-c1ccc(Cl)cc1)c1cccnc1Cl was what?
*A* true

###

# measurementNotes: qHTS assay to identify small molecule antagonists of the sonic hedgehog signaling (Shh) pathway - cell viability counter screen (AID 1259367); note: nearly all actives have a fitted effect of over 55% in size; note: potency is the fitted concentration of half-maximal effect
# measurementParameters: NIH/3T3 Gli1-Luc viability, CellTiter-Fluor, 24 h; series mostly up to 92.4 µM
Inconclusive results are not listed. Activity calls are given as the source filed them. The call rests on the fitted dose curve; in most records, active means well fitted cell-killing curve with a large enough effect in the repeat runs; inconclusive means weak or mixed curves, or effect the other way; inactive means no such curve, though single readings can be large or run the other way.
metric: Potency

CCN(CC)C(=O)Cl: inactive
ClC1=C(Cl)[C@]2(Cl)[C@@H]3[C@@H](Cl)[C@H]4O[C@H]4[C@@H]3C1(Cl)C2(Cl)Cl: inactive
O=S(=O)(C(Cl)(Cl)Cl)C(Cl)(Cl)Cl: 54.5 µM (active)
c1ccc2c(c1)Sc1ccccc1N2CC1CN2CCC1CC2 (configuration not stated): 11.9 µM (active)
Cc1cc(C(C)(C)c2ccc(O)c(C)c2)ccc1O: 46.2 µM (active)

*Q* Please look up its Potency: COc1cc(OC)c(OC)cc1C=O
*A* 47.1 µM (active)

*Q* Which measured Potency value corresponds to Clc1ccccc1-c1ccccc1Cl ?
*A* inactive

###

# measurementNotes: qHTS assay for identifying genotoxic compounds that show differential cytotoxicity against isogenic chicken DT40 cell lines with known DNA damage response pathways - wild type cell line (AID 743012); note: nearly all actives have a fitted effect of over 60% in size
# measurementParameters: DT40 wild type chicken cells viability, CellTiter-Glo, 40 h; series mostly up to 68.4 µM
Records with an inconclusive call do not appear. The source made the active and inactive calls. Calls follow the shape of the dose curve; as a rule, active = well fitted cell-killing curve with a large enough effect in the repeat runs; inconclusive = weak or mixed curves, or effect the other way; inactive = no such curve, though single readings can be large or run the other way.
Parameter call: string, one of active, inactive

Here's what some known entries look like.
O=C1C[C@@H]2OCC=C3CN4CC[C@]56c7ccccc7N1[C@H]5[C@H]2[C@H]3C[C@H]46 (tested in a mixture with another compound): inactive
C[C@H]1[C@H]2Cc3ccc(O)cc3[C@]1(C)CCN2CCc1ccccc1: active
S=C(S)N1CCNCC1: inactive
COc1cc([C@@H]2c3cc4c(cc3[C@@H](O)[C@H]3COC(=O)[C@H]23)OCO4)cc(OC)c1O: active
C=CCC1(C(C)CCC)C(=O)N=C(S)NC1=O (configuration not stated): inactive
CCCCNC(C)(C)[P+](=O)O: inactive

*Q* How was Oc1ccc2c3c1O[C@H]1[C@@H](O)C=C[C@H]4[C@H](C2)NCC[C@@]341 classified in this test?
*A* inactive

*Q* Could you please tell me the result logged for C#CCN1CC(=O)N(COC(=O)C2C(C=C(C)C)C2(C)C)C1=O (configuration not stated) in this assay?
*A* inactive

*Q* I would be grateful if you could indicate the recorded call for O=C(OCCN1CCCCC1)C(O)(c1ccccc1)c1ccccc1 .
*A* inactive

*Q* For this molecule, state the assay outcome: CC(C)[C@@]1(NC(=O)[C@@H]2C[C@@H]3c4cccc5[nH]cc(c45)C[C@H]3N(C)C2)O[C@@]2(O)[C@@H]3CCCN3C(=O)[C@H](Cc3ccccc3)N2C1=O
*A* active

*Q* I would be grateful if you could indicate the recorded call for NCC(O)c1cccc(O)c1 (configuration not stated) .
*A* inactive

*Q* # lookup: test call for CN=C1CN(O)C(c2ccccc2)=c2cc(Cl)ccc2=N1
*A* inactive

###

# measurementNotes: A CellTox Green Cytotoxicity Assay to monitor cytotoxicity in HEK293 cells - 32 hour (AID 1224881); note: nearly all actives have a fitted effect of over 40% in size; note: potency is the fitted concentration of half-maximal effect
# measurementParameters: CellTox Green fluorescence; series mostly up to 76.8 µM
Records with an inconclusive call do not appear. Calls of active or inactive are those of the source. Calls follow the shape of the dose curve; as a rule, active = well fitted activation curve with a large enough effect in the repeat runs; inconclusive = weak or mixed curves; inactive = flat fitted curve, though single readings scatter.
metric: Potency

Field: example entries. Status: answers known.
Oc1c(I)cc(I)cc1I: inactive
CCOC(=O)C(O)(c1ccc(Cl)cc1)c1ccc(Cl)cc1: 44.1 µM (active)
ClC1=C(Cl)[C@]2(Cl)[C@@H]3[C@@H](Cl)[C@H]4O[C@H]4[C@@H]3C1(Cl)C2(Cl)Cl: 54.9 µM (active)
CC1COC(Cn2cncn2)(c2ccc(Oc3ccc(Cl)cc3)cc2Cl)O1 (stereo unspecified): inactive

*Q* What does the record list as Potency for C[C@]12CC[C@@H](O)C[C@@H]1CC[C@@H]1[C@@H]2CC[C@]2(C)C(=O)CC[C@@H]12 ?
*A* 54.9 µM (active)

*Q* Value lookup for Potency; key = OCC(c1ccc(Cl)cc1)c1ccc(Cl)cc1
*A* 38.9 µM (active)

###

# measurementNotes: qHTS RealTime-Glo MT Cell Viability Assay in HepG2 cells - 0 hour (AID 1224889); note: nearly all actives have a fitted effect of over 50% in size; note: potency is the fitted concentration of half-maximal effect
# measurementParameters: RealTime-Glo luminescence; series mostly up to 76.8 µM
Inconclusive results are not listed. Calls of active or inactive are those of the source. Calls follow the shape of the dose curve; as a rule, active = well fitted cell-killing curve with a large enough effect in the repeat runs; inconclusive = weak or mixed curves, or effect the other way; inactive = flat fitted curve, though single readings scatter.
metric: Potency

C[C@]12CC[C@@H](O)C[C@@H]1CC[C@@H]1[C@@H]2CC[C@]2(C)C(=O)CC[C@@H]12: 34.7 µM (active)
ClC(Cl)=C(c1ccc(Cl)cc1)c1ccccc1Cl: inactive
O=C1C(I)=CC(=C(c2cc(I)c(O)c(I)c2)c2ccccc2C(=O)O)C=C1I: inactive
Cc1cc(C(C)(C)c2ccc(O)c(C)c2)ccc1O: inactive

We now examine a further compound.
*Q* Quick check: Potency of ClC1=C(Cl)[C@]2(Cl)[C@@H]3[C@@H](Cl)[C@H]4O[C@H]4[C@@H]3C1(Cl)C2(Cl)Cl ?
*A* inactive

###

# assayTarget: Androgen receptor (Homo sapiens)
# measurementNotes: qHTS assay to identify small molecule antagonists of the androgen receptor (AR) signaling pathway using the MDA cell line in the presence of 0.5 nM R1881 (AID 1259243); note: nearly all actives have a fitted effect of over 50% in size
# measurementParameters: MDA-kb2 MMTV-luciferase, R1881 0.5 nM, 16 h; series mostly up to 92.4 µM
Results filed as inconclusive are left out. Active and inactive are the calls of the source. The call rests on the fitted dose curve; in most records, active means well fitted inhibition curve with a large enough effect in the repeat runs; inconclusive means weak or mixed curves; inactive means no such curve, though single readings can be large or run the other way.
Field 'call' accepts active, inactive

CCN(CC)C(=O)Cl: inactive

*Q* Could you kindly confirm the outcome this assay logged for Cc1ccc(N(SC(F)(Cl)Cl)S(=O)(=O)N(C)C)cc1 ?
*A* active

*Q* Any idea what this test logged for ClC(Cl)=C(c1ccc(Cl)cc1)c1ccccc1Cl ?
*A* active

*Q* Answer briefly: the call reported for Cc1cc(C)c(C(=O)P(=O)(c2ccccc2)c2ccccc2)c(C)c1 in this assay.
*A* active

*Q* Test call for this compound, please: O=S(=O)(C(Cl)(Cl)Cl)C(Cl)(Cl)Cl
*A* active

*Q* Lab log entry: O=C(c1ccccc1)C(Cl)Cl — outcome as called in the assay?
*A* active

###

# measurementNotes: qHTS assay to identify small molecule antagonists of the glucocorticoid receptor (GR) signaling pathway - cell viability counter screen (AID 720693); note: nearly all actives have a fitted effect of over 55% in size
# measurementParameters: GR-bla HeLa viability, CellTiter-Glo luminescence, 18 h, with 5 nM dexamethasone present; series mostly up to 58.5 µM
Records with an inconclusive call do not appear. Calls of active or inactive are those of the source. The call rests on the fitted dose curve; in most records, active means well fitted cell-killing curve with a large enough effect in the repeat runs; inconclusive means weak or mixed curves, or effect the other way; inactive means no such curve, though single readings can be large or run the other way.
Can you answer with just one of these options? active, inactive

CC(C)(O)[C@@H]1[C@H]2OC(=O)[C@@H]1[C@]1(O)C[C@H]3O[C@]34C(=O)O[C@H]2[C@]14C: inactive

*Q* What outcome does the record of this test show for Clc1ccc2c(c1)C(c1ccccc1)=NCc1nncn1-2 ?
*A* inactive

*Q* Which outcome was assigned to C[C@@H](CO)NC(=O)[C@@H]1C=C2c3cccc4[nH]cc(c34)C[C@H]2N(C)C1 in this test?
*A* inactive

*Q* What did the test return for O=C(OCCN1CCCCC1)C(O)(c1ccccc1)c1ccccc1 ?
*A* inactive

*Q* Recorded test outcome, item c1ccc(C2(c3ccccc3)CC2C2=NCCN2)cc1 (stereo unspecified)
*A* inactive

*Q* Outcome? CN1CCCC(=C(c2cccs2)c2cccs2)C1
*A* inactive

*Q* # lookup: test call for CN[C@]1(c2ccccc2Cl)CCCCC1=O
*A* inactive

*Q* Outcome? O=C(CCl)c1ccc(Oc2ccc(C(=O)CCl)cc2)cc1
*A* inactive

###

# measurementNotes: qHTS assay to identify small molecule antagonists of the sonic hedgehog signaling (Shh) pathway (AID 1259369); note: nearly all actives have a fitted effect of over 45% in size
# measurementParameters: NIH/3T3 Gli1-Luc reporter, Shh antagonist, luminescence 24 h; series mostly up to 92.4 µM
Results filed as inconclusive are left out. Activity calls are given as the source filed them. Calls come from the whole dose curve.
Your response should consist of one outcome taken from yes (1) (active), no (0) (inactive)

Cc1ccc(N(SC(F)(Cl)Cl)S(=O)(=O)N(C)C)cc1: yes (1)
Cc1cc(C(C)(C)c2ccc(O)c(C)c2)ccc1O: yes (1)
Clc1ccccc1-c1ccccc1Cl: no (0)
OCC(c1ccc(Cl)cc1)c1ccc(Cl)cc1: yes (1)
O=[N+]([O-])c1c(Cl)c(Cl)cc(Cl)c1Cl: no (0)

*Q* Call for entry O=S(=O)(C(Cl)(Cl)Cl)C(Cl)(Cl)Cl :
*A* yes (1)

*Q* What call does the record list for O=C(c1ccccc1)C(Cl)Cl ?
*A* yes (1)
